Where these numbers come from: the supplement of paper PMC10307832

test system: NCI-H2087; assay: relative viability (nuclei count vs DMSO), 5 days (fraction); higher = more cells survive; details: first compound 0.03162 µM
Under this convention, fulfilled denotes relative viability strictly below 0.9 and not fulfilled denotes relative viability at or above 0.9.

| molecule | cat |
| --- | --- |
| NC(=O)Nc1cc(-c2cccc(F)c2)sc1C(=O)N[C@H]1CCCNC1 [AZD7762] + CC(C)C[C@H](NC(=O)[C@H](Cc1ccccc1)NC(=O)c1cnccn1)B(O)O [Bortezomib] (partner 0.002 µM) | fulfilled |
| NC(=O)Nc1cc(-c2cccc(F)c2)sc1C(=O)N[C@H]1CCCNC1 [AZD7762] + Cc1nc(NC(=O)N2CCC[C@H]2C(N)=O)sc1-c1ccnc(C(C)(C)C(F)(F)F)c1 [Alpelisib] (partner 2 µM) | not fulfilled |
| NC(=O)Nc1cc(-c2cccc(F)c2)sc1C(=O)N[C@H]1CCCNC1 [AZD7762] + Cc1cc(Nc2cc(N3CCN(C)CC3)nc(Sc3ccc(NC(=O)C4CC4)cc3)n2)n[nH]1 [Tozasertib] (partner 0.1 µM) | fulfilled |
| NC(=O)Nc1cc(-c2cccc(F)c2)sc1C(=O)N[C@H]1CCCNC1 [AZD7762] + C[C@]1(O)C[C@@H](c2nc(-c3ccc4ccc(-c5ccccc5)nc4c3)c3c(N)nccn32)C1 [Linsitinib] (partner 1 µM) | not fulfilled |

---

tested on: NCI-H661; experiment: relative viability (nuclei count vs DMSO), 5 days (fraction); higher = more cells survive; conditions: first compound 2.53 µM

| molecule | system under test | relative viability |
| --- | --- | --- |
| Oc1nc(-c2ccc(C(F)(F)F)cc2)nc2c1CSCC2 [XAV939] + N=C(N)NC(=N)NCCc1ccccc1 [Phenformin] (partner 250 µM) | NCI-H661 | 0.267 |
| Oc1nc(-c2ccc(C(F)(F)F)cc2)nc2c1CSCC2 [XAV939] + Nc1nc2[nH]cc(CCc3ccc(C(=O)N[C@@H](CCC(=O)O)C(=O)O)cc3)c2c(=O)[nH]1 [Pemetrexed] (partner 0.2 µM) | NCI-H661 | 0.854 |
| C=C1C(=O)O[C@@H](CCCCCCCC)[C@@H]1C(=O)O [C-75] + C[C@]1(O)C[C@@H](c2nc(-c3ccc4ccc(-c5ccccc5)nc4c3)c3c(N)nccn32)C1 [Linsitinib] (partner 1 µM) | NCI-H661 | 0.491 |
| C=C1C(=O)O[C@@H](CCCCCCCC)[C@@H]1C(=O)O [C-75] + O=C(CCCCCCC(=O)Nc1ccccc1)NO [Vorinostat] (partner 1 µM) | NCI-H661 | 0.657 |
| Oc1nc(-c2ccc(C(F)(F)F)cc2)nc2c1CSCC2 [XAV939] + CS(=O)(=O)CCNCc1ccc(-c2ccc3ncnc(Nc4ccc(OCc5cccc(F)c5)c(Cl)c4)c3c2)o1 [Lapatinib] (partner 2 µM) | NCI-H661 | 0.372 |

---

system: NCI-H23; experiment: relative viability (nuclei count vs DMSO), 5 days (fraction); higher = more cells survive; settings: first compound 0.005 µM
Under this convention, True denotes relative viability strictly below 0.6 and False denotes relative viability at or above 0.6.

| compound | cat |
| --- | --- |
| CC1(C)CCC(c2ccc(Cl)cc2)=C(CN2CCN(c3ccc(C(=O)NS(=O)(=O)c4ccc(N[C@H](CCN5CCOCC5)CSc5ccccc5)c(S(=O)(=O)C(F)(F)F)c4)cc3)CC2)C1 [Navitoclax] + Cc1nc(NC(=O)N2CCC[C@H]2C(N)=O)sc1-c1ccnc(C(C)(C)C(F)(F)F)c1 [Alpelisib] (partner 2 µM) | False |
| CC1(C)CCC(c2ccc(Cl)cc2)=C(CN2CCN(c3ccc(C(=O)NS(=O)(=O)c4ccc(N[C@H](CCN5CCOCC5)CSc5ccccc5)c(S(=O)(=O)C(F)(F)F)c4)cc3)CC2)C1 [Navitoclax] + CCNC(=O)c1noc(-c2cc(C(C)C)c(O)cc2O)c1-c1ccc(CN2CCOCC2)cc1 [Luminespib] (partner 0.01 µM) | True |
| CC1(C)CCC(c2ccc(Cl)cc2)=C(CN2CCN(c3ccc(C(=O)NS(=O)(=O)c4ccc(N[C@H](CCN5CCOCC5)CSc5ccccc5)c(S(=O)(=O)C(F)(F)F)c4)cc3)CC2)C1 [Navitoclax] + C[C@@H](Oc1cc(-c2cnn(C3CCNCC3)c2)cnc1N)c1c(Cl)ccc(F)c1Cl [Crizotinib] (partner 1 µM) | True |
| CC1(C)CCC(c2ccc(Cl)cc2)=C(CN2CCN(c3ccc(C(=O)NS(=O)(=O)c4ccc(N[C@H](CCN5CCOCC5)CSc5ccccc5)c(S(=O)(=O)C(F)(F)F)c4)cc3)CC2)C1 [Navitoclax] + COc1cc2c(Oc3ccc(NC(=O)C4(C(=O)Nc5ccc(F)cc5)CC4)cc3F)ccnc2cc1OCCCN1CCOCC1 [Foretinib] (partner 0.25 µM) | False |
| CC1(C)CCC(c2ccc(Cl)cc2)=C(CN2CCN(c3ccc(C(=O)NS(=O)(=O)c4ccc(N[C@H](CCN5CCOCC5)CSc5ccccc5)c(S(=O)(=O)C(F)(F)F)c4)cc3)CC2)C1 [Navitoclax] + N=C(N)NC(=N)NCCc1ccccc1 [Phenformin] (partner 250 µM) | False |
| CC1(C)CCC(c2ccc(Cl)cc2)=C(CN2CCN(c3ccc(C(=O)NS(=O)(=O)c4ccc(N[C@H](CCN5CCOCC5)CSc5ccccc5)c(S(=O)(=O)C(F)(F)F)c4)cc3)CC2)C1 [Navitoclax] + CS(=O)(=O)CCNCc1ccc(-c2ccc3ncnc(Nc4ccc(OCc5cccc(F)c5)c(Cl)c4)c3c2)o1 [Lapatinib] (partner 2 µM) | False |
